Molecular target: Hck (UniProt P08631)
Sequence (P08631 whole entry, looked up): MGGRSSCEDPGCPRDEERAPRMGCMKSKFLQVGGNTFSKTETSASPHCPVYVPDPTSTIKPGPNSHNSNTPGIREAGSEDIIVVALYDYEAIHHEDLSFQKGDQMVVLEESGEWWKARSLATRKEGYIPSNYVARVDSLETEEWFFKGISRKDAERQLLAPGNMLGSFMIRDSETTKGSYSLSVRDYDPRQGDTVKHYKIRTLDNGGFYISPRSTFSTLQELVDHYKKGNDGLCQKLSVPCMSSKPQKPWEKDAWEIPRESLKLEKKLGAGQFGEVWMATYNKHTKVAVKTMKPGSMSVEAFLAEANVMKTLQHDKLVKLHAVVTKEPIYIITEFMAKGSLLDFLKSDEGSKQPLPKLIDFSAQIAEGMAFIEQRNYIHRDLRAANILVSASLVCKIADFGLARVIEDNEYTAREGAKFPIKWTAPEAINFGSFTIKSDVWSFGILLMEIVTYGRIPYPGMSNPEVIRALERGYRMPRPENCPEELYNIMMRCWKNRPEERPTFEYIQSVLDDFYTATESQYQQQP
Test: phosphorylation enrichment, bacterial display (enrichment ratio); higher = better substrate or ligand; peptides without Tyr show the background;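 also: 11-residue human phosphosite peptides and single-mutation variants displayed on the E. coli surface, counted by deep sequencing, each peptide's frequency after selection divided by its frequency in the unselected input library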;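 also: frequency after pTyr selection over input frequency; kinase dosed for 20-30% of maximal phosphorylation in three min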
A collection of sequences and their measured phosphorylation enrichment
I only need the number, thanks.

Check out these entries, answers already filled in.
- PPSGEYFGQCG [TRIP6_Y275]: 0.764
- GRSTCYWPRPR [GAGE12J_Y10_Y9C]: 0.557
- RGSQQYRALPV [TUBB8_Y281_T285P]: 0.388
- SFLSYYTSHVQ [NEFL_Y443_P440L]: 0.794
- KPIETYFSKNF [PLP1_Y50_L46P_YF]: 0.436

For this sequence ( PMDTYYDSTRG [DYNC2H1_Y2231] ), measured phosphorylation enrichment is 1.86

Consider HKETGYVVERP [BCLAF1_Y466_L461H] . Its measured phosphorylation enrichment is 0.448

====

Below, each entry is listed alongside its reported phosphorylation enrichment.
Biological target: EPHB1 (UniProt P54762)
Sequence (P54762 whole entry, looked up): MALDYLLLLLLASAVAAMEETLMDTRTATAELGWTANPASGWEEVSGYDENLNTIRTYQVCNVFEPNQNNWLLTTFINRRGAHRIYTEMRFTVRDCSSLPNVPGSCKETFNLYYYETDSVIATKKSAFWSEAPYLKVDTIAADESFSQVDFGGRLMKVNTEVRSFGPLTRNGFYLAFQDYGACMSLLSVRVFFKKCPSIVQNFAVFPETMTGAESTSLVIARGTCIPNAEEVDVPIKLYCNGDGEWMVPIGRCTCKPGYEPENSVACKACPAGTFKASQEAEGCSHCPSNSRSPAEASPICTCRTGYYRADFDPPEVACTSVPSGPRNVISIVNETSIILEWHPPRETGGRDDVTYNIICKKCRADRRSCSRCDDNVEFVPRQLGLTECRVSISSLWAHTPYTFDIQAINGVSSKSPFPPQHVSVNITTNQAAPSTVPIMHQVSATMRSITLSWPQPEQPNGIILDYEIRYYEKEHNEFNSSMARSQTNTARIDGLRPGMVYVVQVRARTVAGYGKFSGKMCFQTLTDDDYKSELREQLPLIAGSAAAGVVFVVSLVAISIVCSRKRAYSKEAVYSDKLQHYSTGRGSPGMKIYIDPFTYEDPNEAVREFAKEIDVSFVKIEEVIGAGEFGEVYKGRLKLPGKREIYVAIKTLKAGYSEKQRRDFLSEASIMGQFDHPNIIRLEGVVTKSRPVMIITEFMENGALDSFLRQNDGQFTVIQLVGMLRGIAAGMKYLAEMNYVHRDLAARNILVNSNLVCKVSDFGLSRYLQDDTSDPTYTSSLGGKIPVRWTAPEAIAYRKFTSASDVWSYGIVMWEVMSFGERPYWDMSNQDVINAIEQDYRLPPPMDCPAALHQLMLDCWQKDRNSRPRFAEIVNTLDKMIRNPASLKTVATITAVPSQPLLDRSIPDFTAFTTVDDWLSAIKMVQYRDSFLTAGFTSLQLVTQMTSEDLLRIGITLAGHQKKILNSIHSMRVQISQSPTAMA
Test: phosphorylation enrichment, bacterial display (enrichment ratio); higher = better substrate or ligand; peptides without Tyr show the background
Answer using only a numeral; do not append any unit.

- HHIDYYKKTTN [FGFR1_Y654]: 0.47

For MARDIYRASYY [ALK_Y1278] on EPHB1 (UniProt P54762), measured phosphorylation enrichment was 0.466

Short answer on EPHB1 (UniProt P54762) for IIWDSYTTNKM [GNB4_Y85] , phosphorylation enrichment: 0.68

phosphorylation enrichment of WVFNHYRWFIW [BRCA2_Y2624_I2627F_YF] , assay on EPHB1 (UniProt P54762), is 0.654

Param item: DRLASYLDKVP [KRT14_Y129_R134P] ; param system: EPHB1 (UniProt P54762); output phosphorylation enrichment: 0.537

Noted phosphorylation enrichment for FADIAYNYRHA [PAH_Y166_G171A] , tested on EPHB1 (UniProt P54762): 0.593

Record SRWKLYPRMLR [HAO1_Y50] / EPHB1 (UniProt P54762), phosphorylation enrichment recorded as 0.478

====

// phosphorylation enrichment lookup, one value per entry
System: AncSZ
Test: phosphorylation enrichment, bacterial display (enrichment ratio); higher = better substrate or ligand; peptides without Tyr show the background
Write the number on its own, no unit after it.

Some sequences with known phosphorylation enrichment results, for comparison:
- TRGLEYIVPLM [CLCN4_Y548_G544R]: 1.18
- NTTIHYNYMCN [TP53_Y234_C229N]: 1.08

Briefly, phosphorylation enrichment measured for FTNRSYDLDYD [MYC_Y12_N11S] : 1.24

Memo: LYDPDFMKVIL [CYP4A22_Y104_Y104F] , reported phosphorylation enrichment: 1.18

phosphorylation enrichment in this record for PRAEWYRDDVL [MYOM2_Y317] : 1.31

====

Biological target: Hck (UniProt P08631)
Assay: phosphorylation enrichment, bacterial display (enrichment ratio); higher = better substrate or ligand; peptides without Tyr show the background
I would appreciate it if you labelled entries 1.0 when phosphorylation enrichment is 0.7 or higher, otherwise 0.0.

Query :: Does the sequence LHVKMYNFLRS [ADGRG7_Y760_R756H] have recorded phosphorylation enrichment that is 0.7 or more?
Result :: 0.0

Query :: # check: phosphorylation enrichment of KEDSAYGSQSV [NFKB2_Y868] is greater than or equal to 0.7
Result :: 0.0

Query :: Threshold query (phosphorylation enrichment >= 0.7) on LRGVIYVILRK [PMP22_Y153_S149R]
Result :: 0.0

Query :: Check the entry GPQSLYNGLVA [UCP2_Y79_R76Q] : does phosphorylation enrichment equal or exceed 0.7?
Result :: 1.0

Query :: Has MFNPFYGLFEF [NEDD4L_Y680_YF] a recorded phosphorylation enrichment greater than or equal to 0.7?
Result :: 1.0

Query :: Decide: phosphorylation enrichment of LINSVYGCSRQ [TMPRSS6_Y290_T287N] >= 0.7?
Result :: 1.0

Query :: Does the sequence LGQRIYQYIQS [DYRK1B_Y271] have recorded phosphorylation enrichment that is 0.7 or more?
Result :: 1.0
